Would you mind telling me the reported IC50 of each entry?
# target.or.system: adenosine-2 (A-2) receptor (Rattus norvegicus, UniProt P30543)
# Construct: striatal membrane preparations from corpus striatum of male Sprague-Dawley rats; from tissue; host or cells: corpus striatum of male Sprague-Dawley rats (membrane preparation)
# Sequence (P30543 whole entry): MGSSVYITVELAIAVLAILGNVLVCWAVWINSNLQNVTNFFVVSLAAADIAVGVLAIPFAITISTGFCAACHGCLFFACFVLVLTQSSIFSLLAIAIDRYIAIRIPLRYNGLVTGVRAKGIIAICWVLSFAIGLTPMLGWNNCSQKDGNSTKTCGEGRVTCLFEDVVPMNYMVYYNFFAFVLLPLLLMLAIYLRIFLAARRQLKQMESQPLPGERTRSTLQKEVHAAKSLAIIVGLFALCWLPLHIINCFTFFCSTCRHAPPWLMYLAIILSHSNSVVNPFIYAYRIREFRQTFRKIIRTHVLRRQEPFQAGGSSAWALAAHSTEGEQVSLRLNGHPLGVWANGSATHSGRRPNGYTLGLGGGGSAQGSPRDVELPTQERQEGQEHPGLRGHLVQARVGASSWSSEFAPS
# protocol.text: adenosine-2 (A-2) receptor binding: inhibition of specific binding of 3H-NECA in rat striatal membrane preparations
# Design: species or system male Sprague-Dawley rats
# condition.parameters: displacement of 4 nM 3H-NECA in the presence of 50 nM cyclopentyladenosine; rat striatal membranes; read-out: IC50 in the in vitro adenosine-2 receptor binding assay

• Nc1cc(NCCC2CCCCC2)nc2c1ncn2[C@@H]1O[C@H](CO)[C@@H](O)[C@H]1O = ~100 nM

Next:
[in] Write down the reported IC50 (system: adenosine-2 (A-2) receptor (Rattus norvegicus, UniProt P30543)) of COc1ccc(CCNc2cc(N)c3ncn([C@@H]4O[C@H](CO)[C@@H](O)[C@H]4O)c3n2)cc1
[out] ~70 nM

Taken from patent US4977144A.
